test system: UO-31 renal; assay: NCI tumour cell line growth inhibition, 48 h
METRIC: log10 TGI (log10 of the value in µM)
// stored as log10 of TGI expressed in µM

* COc1cc(C(c2c(O)c3ccccc3oc2=O)c2c(O)c3ccccc3oc2=O)ccc1O | 1.82

Known value: UO-31 renal log10 TGI of the compound COc1ccc(-c2cn[nH]c2-c2cc(OC)c(OC)c(OC)c2)cc1OCc1ccccc1 equals 1.18

Known value: UO-31 renal log10 TGI of the compound COc1ccc2[nH]c3c(C)c4ccncc4c(C)c3c2c1 equals 0.63

Known value: UO-31 renal log10 TGI of the compound CCNCCCNc1c2ccccc2nc2ccccc12 equals 0.42

Known value: UO-31 renal log10 TGI of the compound COc1ccc(C(C)c2cc3c(cc2O)OCO3)cc1 (stereo unspecified) equals 1.47
